Target: Protein kinase 7 (PK7), Plasmodium falciparum 3D7 (PF3D7_0213400) (UniProt Q7YTF7)
Sequence (Q7YTF7 1-343): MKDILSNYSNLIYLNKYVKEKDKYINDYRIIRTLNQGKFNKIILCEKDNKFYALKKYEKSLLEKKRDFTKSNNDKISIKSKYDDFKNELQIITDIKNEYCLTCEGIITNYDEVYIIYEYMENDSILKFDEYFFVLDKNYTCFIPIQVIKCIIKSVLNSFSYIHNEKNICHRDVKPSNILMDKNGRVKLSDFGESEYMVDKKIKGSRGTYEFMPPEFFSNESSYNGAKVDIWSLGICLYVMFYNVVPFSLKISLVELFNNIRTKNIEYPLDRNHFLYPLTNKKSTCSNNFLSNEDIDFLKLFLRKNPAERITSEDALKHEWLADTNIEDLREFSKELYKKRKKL
Experiment: inhibition of Plasmodium PK7 catalytic activity – biochemical, TCAMS antimalarial set, Kinase-Glo luminescence (AID 1159587)
Conditions: recombinant PfPK7, Kinase-Glo ATP depletion luminescence
Calls of active or inactive are those of the source. No rule for the calls is given here.
measurement-name: outcome

Use the examples below as a reference point.
CC(CCCC(=O)Nc1ccc(CC(C)NCCc2cccc(Cl)c2)cc1)NCCc1cccc(Cl)c1 (centres undefined) ... inactive
COc1ccc2nccc(N3CCN(CCNCc4ccc5c(n4)NC(=O)CS5)CC3)c2n1 ... inactive
O=C(Nc1ccc(Cl)c(C(F)(F)F)c1)c1ccc(C(=O)Nc2ccc(Cl)c(C(F)(F)F)c2)cc1 ... inactive
CCN(CC)CCN(Cc1ccc(-c2ccc(C(F)(F)F)cc2)cc1)C(=O)Cn1c(CCc2cccc(F)c2F)nc(=O)c2ccc(F)cc21 ... inactive
CN(Cc1ccccc1)C1CCN(c2cc(NC(=O)c3cccc(F)c3)ccn2)CC1 ... inactive

We next turn to a different molecule, shown below.
In plain terms, `Cc1cc(NC(=O)Nc2ccc(C(C)(C)C)cc2)c2ccccc2n1` has a documented outcome of inactive

Recorded values, source PubChem BioAssay.
